Where do these numbers come from? They come from paper PMC11714206.

# study.system: MyD88^TIR (Homo sapiens)
# Construct: MyD88 (residues 148–296); 6xHis; made in house; host or cells: E. coli BL21 (DE3)
# assay.notes: T‐Surf phage library (P8 and P3) selection against MyD88^TIR, four rounds, NGS read counts
# Format: binding
# stated.conditions: P3_MyD88: rank by count after grouping
Below, each of the sequences is paired with its reported Rank (after) value.

{"columns": ["chain.sequence", "Rank (after)"],
 "data": [
  ["LKVESWRQALEKRAN", 99],
  ["SRDYASSPWALDELVL", 146],
  ["SENYATSPWALKERLP", 133],
  ["NQCRNALTAAANLSGC", 149],
  ["SSFREGLWHLLVLSKK", 160],
  ["YTALTNSGIHTLRDND", 174],
  ["DQHRDLPRGKAIKPEILG", 168],
  ["YTALTNRGFLTFRDNA", 180],
  ["NELVHEISKKMKIFATI", 398]
]}

---

P8_MAL Rank (after) values for the sequences below.
# study.system: MAL^TIR (Homo sapiens, UniProt P58753)
# Construct: MAL (residues 79–221); 6xHis; made in house; host or cells: E. coli BL21 (DE3)
# Sequence (P58753 79-221): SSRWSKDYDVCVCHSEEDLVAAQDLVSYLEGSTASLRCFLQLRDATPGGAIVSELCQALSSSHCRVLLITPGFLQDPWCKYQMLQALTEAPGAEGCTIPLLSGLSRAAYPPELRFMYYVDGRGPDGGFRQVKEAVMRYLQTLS
# assay.notes: T‐Surf phage library (P8 and P3) selection against MAL^TIR, four rounds, NGS read counts
# Assay type: binding
# stated.conditions: P8 library, 4R selection against MAL, rank after grouping
# Experimental: T‐Surf libraries were screened against the immobilized TIR domains of two major human TLR adaptor proteins, MAL^TIR and MyD88^TIR, allowing cross‐species selection of TIR‐binding motifs with 190 946 TIR‐derived peptides in a single binding assay (Scheme 1). Enriched phage pools from the fourth round of selection were analyzed using NGS after barcoding the peptide‐coding regions of the phage pools. […]

{"columns": ["chain.sequence", "P8_MAL Rank (after)"],
 "data": [
  ["QLIQQLIELHLDQLHL", 653],
  ["TFLGHLYNALVQAGIRAFL", 588],
  ["RNLVAYLLQPRANKCI", 603],
  ["AFLYTFLIILPIRPNF", 589],
  ["LFFWESLKQLLRTVLGKPTM", 669],
  ["WFYERLVSLIMRDNIV", 634],
  ["KLFWEKLKLFLPSLSR", 657],
  ["DTILKKGEGIAPELLR", 659],
  ["DTRYTFIAHLSHALNL", 651],
  ["SEFIQKIILWMNLKNQ", 581],
  ["AFPDTFLIKLPHPTNV", 611],
  ["WFLTAFRVAMEQVADT", 662],
  ["LFYGRMVSLILRDTNV", 639],
  ["HFYWILLKSILGETRL", 618],
  ["YFLHFLLFNRPETNYI", 597],
  ["AFFCAQLKSVMGNPTI", 675],
  ["WLYERLVGLILRYTKV", 638]
]}

---

As shown below, each of these sequences has a reported P3_MyD88 Rank (before) value.
# study.system: MyD88^TIR (Homo sapiens, UniProt Q99836)
# Construct: MyD88 (residues 148–296); 6xHis; made in house; host or cells: E. coli BL21 (DE3)
# Sequence (Q99836 148-296): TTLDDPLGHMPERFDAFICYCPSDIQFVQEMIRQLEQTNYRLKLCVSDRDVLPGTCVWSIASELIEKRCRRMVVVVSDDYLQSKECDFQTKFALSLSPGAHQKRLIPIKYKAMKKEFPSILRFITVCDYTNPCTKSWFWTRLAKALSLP
# assay.notes: T‐Surf phage library (P8 and P3) selection against MyD88^TIR, four rounds, NGS read counts
# Type: binding
# stated.conditions: P3 library, selection against MyD88, rank before grouping
# Method: T‐Surf libraries were screened against the immobilized TIR domains of two major human TLR adaptor proteins, MAL^TIR and MyD88^TIR, allowing cross‐species selection of TIR‐binding motifs with 190 946 TIR‐derived peptides in a single binding assay (Scheme 1). Enriched phage pools from the fourth round of selection were analyzed using NGS after barcoding the peptide‐coding regions of the phage pools. […]
measured.metric: P3_MyD88 Rank (before)

{"columns": ["chain.sequence", "study.system", "measured.metric", "recorded.measurement"],
 "data": [
  ["PEKDNGGEIAFINNLV", "MyD88^TIR (Homo sapiens, UniProt Q99836)", "P3_MyD88 Rank (before)", 2710],
  ["LVAHEISKKLKNFPTI", "MyD88^TIR (Homo sapiens, UniProt Q99836)", "P3_MyD88 Rank (before)", 2289],
  ["NSFREGLWRLVELSKK", "MyD88^TIR (Homo sapiens, UniProt Q99836)", "P3_MyD88 Rank (before)", 3557],
  ["KQWRNALTAEANLSGW", "MyD88^TIR (Homo sapiens, UniProt Q99836)", "P3_MyD88 Rank (before)", 3552],
  ["LVAHEISKKRKIFATS", "MyD88^TIR (Homo sapiens, UniProt Q99836)", "P3_MyD88 Rank (before)", 2306],
  ["EWIREQFRRALKERLP", "MyD88^TIR (Homo sapiens, UniProt Q99836)", "P3_MyD88 Rank (before)", 2131],
  ["DHHLDLPRGKAIQPDILG", "MyD88^TIR (Homo sapiens, UniProt Q99836)", "P3_MyD88 Rank (before)", 2014],
  ["RVAHEISTKMKIFATI", "MyD88^TIR (Homo sapiens, UniProt Q99836)", "P3_MyD88 Rank (before)", 2682],
  ["SSCREGLWSLLELSKK", "MyD88^TIR (Homo sapiens, UniProt Q99836)", "P3_MyD88 Rank (before)", 3262],
  ["LVAQEISKIKTMLATT", "MyD88^TIR (Homo sapiens, UniProt Q99836)", "P3_MyD88 Rank (before)", 2317],
  ["KEVEGWRDALTKVANLSGW", "MyD88^TIR (Homo sapiens, UniProt Q99836)", "P3_MyD88 Rank (before)", 3634],
  ["LNGAIRIFGANCVMR", "MyD88^TIR (Homo sapiens, UniProt Q99836)", "P3_MyD88 Rank (before)", 2400],
  ["LSRVPSVHEFRGFVGV", "MyD88^TIR (Homo sapiens, UniProt Q99836)", "P3_MyD88 Rank (before)", 2392],
  ["HPWRNTLTAAANLNGR", "MyD88^TIR (Homo sapiens, UniProt Q99836)", "P3_MyD88 Rank (before)", 2804],
  ["AGDKGTDKIQTPLKNA", "MyD88^TIR (Homo sapiens, UniProt Q99836)", "P3_MyD88 Rank (before)", 1942],
  ["SELREVVGGAVSQLVM", "MyD88^TIR (Homo sapiens, UniProt Q99836)", "P3_MyD88 Rank (before)", 3061],
  ["PSEVRKQTGSLAKALCD", "MyD88^TIR (Homo sapiens, UniProt Q99836)", "P3_MyD88 Rank (before)", 2753]
]}

---

# study.system: MyD88^TIR (Homo sapiens, UniProt Q99836)
# Construct: MyD88 (residues 148–296); 6xHis; made in house; host or cells: E. coli BL21 (DE3)
# assay.notes: T‐Surf phage library (P8 and P3) selection against MyD88^TIR, four rounds, NGS read counts
# Type: binding
# stated.conditions: P8 library, selection against MyD88, rank after grouping

{"columns": ["chain.sequence", "P8_MyD88 Rank (after)"],
 "data": [
  ["WALDELLKILYVIATL", 525],
  ["DPQDLDWFYERLISRILQ", 549],
  ["YYDSRWALDELLKIL", 484],
  ["DPQYRDWFYERLVSLP", 512],
  ["YARSDDNYYYWVTHVLLRHL", 507],
  ["LGYHWNDGEYFVGIKD", 489],
  ["WALYELLHILHARELF", 532],
  ["DPQDLQWFYECLVSLL", 514],
  ["WALDELLQLQHARELF", 561],
  ["DLVCDYLLPNLEGAAG", 537],
  ["YAASPRLFGEPVKIVG", 497],
  ["YLRLEVIWFWENRRYA", 491],
  ["DPQDTDWFYERLVSMF", 499],
  ["FAANPLSFHVRVKLGG", 501],
  ["DPQELGWFYERPFSQM", 554],
  ["DLLLSEFQSIFARRTV", 531],
  ["YQLVFVHFWMFDGRTA", 518],
  ["LGYHWFDWVYFVGIED", 523],
  ["DPQDLNGFMNVCLAR", 488],
  ["WDFASTMEQLWARLYY", 498],
  ["NYAASEWALRELIQIM", 528],
  ["DPQDLDWFLNVWLTW", 575],
  ["YLKWGYPWFWDRLRFA", 571],
  ["DPQDLDWFYERLEPV", 530],
  ["DPQDREWCYERLVSLL", 516],
  ["LGYHWNDREYFLDIED", 536],
  ["LGYISIVRGYFVGIER", 486],
  ["SPWALYELAMIIEAM", 503],
  ["DPQTLQSFYERLVSLI", 557],
  ["DLCDILSQNGIPTFFD", 534],
  ["WDFASNMEQFWDRLIRMIE", 529],
  ["DPLALEWYYERPFSQM", 559],
  ["KIARCMIFGVFWKAP", 527],
  ["DYANSSWALDELWLIL", 510],
  ["DPQDLQWFYERLVSLMASGI", 494],
  ["MFGGATLHDVLELISM", 509],
  ["YASYDDNDYYWDPCAAASS", 511]
]}
